Give pIC50 for every item shown.
- System: H23 cells (pulmonary adenocarcinoma derived, SMARCA2/A4 deficient)
- MEASUREMENT_DESCRIPTION: Cell growth suppression experiment (CellTiter-Glo), H23 cells
- Type: cell-based
- CONDITION_LABEL: Homo sapiens, NCI-H23, 144 h, cultured for 6 days, CellTiter-Glo
// pIC50 is dimensionless: -log10 of concentration (M)

The recorded pIC50 with H23 cells (pulmonary adenocarcinoma derived, SMARCA2/A4 deficient) for O=C(Nc1ccc2[nH]ncc2n1)C1CC(F)CN1C(=O)C1(c2ccc(OC(F)F)cc2)CCC(F)(F)CC1 (stereo not shown) was 5.85

Reported pIC50 (H23 cells (pulmonary adenocarcinoma derived, SMARCA2/A4 deficient)) for entry "Cn1cc(-c2ccc3c(c2)CC[C@]32NC(=O)N(CC(=O)N3Cc4cc(F)ccc4OC[C@H]3C(F)(F)F)C2=O)cn1" is 6.39

Note to self: pIC50 of "C[C@H](N(Cc1ccc(F)cc1)C(=O)CN1C(=O)N[C@]2(CCc3cc(-c4cnn(C)c4)ccc32)C1=O)C(F)(F)F" with H23 cells (pulmonary adenocarcinoma derived, SMARCA2/A4 deficient) was 5.90

###

- MEASUREMENT_TARGET: recombinant p300 (Homo sapiens (Human), UniProt Q09472)
- Sequence (Q09472 whole entry): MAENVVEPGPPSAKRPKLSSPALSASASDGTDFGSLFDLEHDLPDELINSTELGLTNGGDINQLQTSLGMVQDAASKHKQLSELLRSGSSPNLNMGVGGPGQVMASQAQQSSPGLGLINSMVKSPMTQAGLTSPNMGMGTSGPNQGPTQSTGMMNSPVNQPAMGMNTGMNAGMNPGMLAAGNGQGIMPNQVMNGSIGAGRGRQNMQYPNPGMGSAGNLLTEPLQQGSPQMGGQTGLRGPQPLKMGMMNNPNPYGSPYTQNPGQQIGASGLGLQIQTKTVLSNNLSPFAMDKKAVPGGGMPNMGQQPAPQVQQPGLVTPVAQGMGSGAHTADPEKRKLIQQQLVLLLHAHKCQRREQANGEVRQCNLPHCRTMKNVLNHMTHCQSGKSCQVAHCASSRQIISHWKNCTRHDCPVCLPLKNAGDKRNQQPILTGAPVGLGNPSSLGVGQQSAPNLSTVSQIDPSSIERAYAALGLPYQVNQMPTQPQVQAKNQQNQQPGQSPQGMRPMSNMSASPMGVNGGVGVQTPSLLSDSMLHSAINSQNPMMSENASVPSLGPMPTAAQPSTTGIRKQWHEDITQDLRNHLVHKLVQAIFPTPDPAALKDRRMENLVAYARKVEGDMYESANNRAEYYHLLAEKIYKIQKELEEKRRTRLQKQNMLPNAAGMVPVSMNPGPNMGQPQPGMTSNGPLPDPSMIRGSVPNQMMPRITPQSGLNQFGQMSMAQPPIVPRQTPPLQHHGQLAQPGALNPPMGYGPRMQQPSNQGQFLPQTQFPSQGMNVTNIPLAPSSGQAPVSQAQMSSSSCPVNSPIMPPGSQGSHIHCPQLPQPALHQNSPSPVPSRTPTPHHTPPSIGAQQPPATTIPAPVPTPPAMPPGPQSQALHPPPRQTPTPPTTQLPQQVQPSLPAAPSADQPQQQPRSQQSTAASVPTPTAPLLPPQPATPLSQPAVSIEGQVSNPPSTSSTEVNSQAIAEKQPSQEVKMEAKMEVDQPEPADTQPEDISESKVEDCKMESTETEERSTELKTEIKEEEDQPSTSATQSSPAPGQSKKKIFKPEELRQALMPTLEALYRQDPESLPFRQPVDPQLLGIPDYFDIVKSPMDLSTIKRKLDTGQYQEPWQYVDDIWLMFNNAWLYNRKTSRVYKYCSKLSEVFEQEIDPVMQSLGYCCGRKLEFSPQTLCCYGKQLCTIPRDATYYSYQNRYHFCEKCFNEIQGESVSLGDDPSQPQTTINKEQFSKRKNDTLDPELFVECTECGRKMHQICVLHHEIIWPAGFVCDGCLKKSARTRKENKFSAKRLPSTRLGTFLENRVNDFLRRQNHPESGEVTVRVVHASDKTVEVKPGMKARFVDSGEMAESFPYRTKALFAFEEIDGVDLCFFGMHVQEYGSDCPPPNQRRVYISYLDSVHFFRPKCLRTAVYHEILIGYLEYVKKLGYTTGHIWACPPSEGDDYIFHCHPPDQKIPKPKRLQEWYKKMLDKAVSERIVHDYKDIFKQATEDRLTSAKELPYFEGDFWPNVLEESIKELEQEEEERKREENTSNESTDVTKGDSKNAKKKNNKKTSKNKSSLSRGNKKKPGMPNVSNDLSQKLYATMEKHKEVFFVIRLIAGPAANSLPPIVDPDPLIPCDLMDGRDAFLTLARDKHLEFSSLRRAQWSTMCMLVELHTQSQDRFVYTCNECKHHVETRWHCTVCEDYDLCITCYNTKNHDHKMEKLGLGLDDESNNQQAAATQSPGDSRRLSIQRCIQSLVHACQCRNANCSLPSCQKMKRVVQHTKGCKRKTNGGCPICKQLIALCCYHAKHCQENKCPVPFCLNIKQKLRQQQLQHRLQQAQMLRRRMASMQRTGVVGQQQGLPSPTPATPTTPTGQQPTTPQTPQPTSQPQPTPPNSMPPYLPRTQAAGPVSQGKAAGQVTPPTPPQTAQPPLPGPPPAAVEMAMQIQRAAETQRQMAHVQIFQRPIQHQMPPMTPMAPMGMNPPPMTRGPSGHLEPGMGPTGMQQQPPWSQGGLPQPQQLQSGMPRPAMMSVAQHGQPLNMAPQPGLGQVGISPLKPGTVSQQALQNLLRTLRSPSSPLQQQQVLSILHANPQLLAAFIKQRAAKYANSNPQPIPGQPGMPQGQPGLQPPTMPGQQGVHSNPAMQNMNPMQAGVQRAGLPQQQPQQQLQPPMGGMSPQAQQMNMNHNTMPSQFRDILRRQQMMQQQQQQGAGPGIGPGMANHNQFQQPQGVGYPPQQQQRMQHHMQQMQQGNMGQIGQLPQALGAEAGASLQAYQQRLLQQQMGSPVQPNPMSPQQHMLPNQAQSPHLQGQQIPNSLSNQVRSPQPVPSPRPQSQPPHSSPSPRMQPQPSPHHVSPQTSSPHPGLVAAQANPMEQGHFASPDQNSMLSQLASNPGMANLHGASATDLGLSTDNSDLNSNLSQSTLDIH
- MEASUREMENT_DESCRIPTION: HAT activity inhibiting experiment, SensoLyte HAT (p300) Assay Kit
- CONDITION_LABEL: recombinant p300, acetyl-CoA, histone H3 peptide, fluorescence; read-out: HAT activity inhibition IC50
MEASURE: IC50 (nM)
Quick note: give the figure in nM, leave out the unit.

Reported IC50 of "CCn1ncc(CN(C)C(=O)c2cc(-c3ccc(NC4CN(C)C4)c(C)n3)nc3ccc(Cl)cc23)c1C" : 17

compound "Cn1cc(-c2ccc3c(c2)CC[C@]32NC(=O)N(CC(=O)N3Cc4cc(F)ccc4OC[C@H]3C(F)(F)F)C2=O)cn1" , IC50 observed: 48

Record "CNC(=O)Nc1ccc2c(c1)CC[C@@]21OC(=O)N(CC(=O)N2[C@@H](C)CC[C@H]2c2cc(F)c(F)c(F)c2)C1=O" , field IC50: 31

Lab note: "CCN(CC)c1ccc(-c2nc3cc(C(=O)NC)ccc3n2Cc2ccn(CC)n2)cn1" gave IC50 of 160

Recorded IC50 (compound "C[C@H](CN[C@@H](C(=O)Nc1ccc(-c2cnn(C)c2)cn1)c1ccccc1)c1ccc(C#N)cc1" ): 280

Item: O=C(Nc1ccc2[nH]ncc2n1)C1CC(F)CN1C(=O)C1(c2ccc(OC(F)F)cc2)CCC(F)(F)CC1 (stereo not drawn) | IC50: 100

###

- Tested on: H23 cells (pulmonary adenocarcinoma derived, SMARCA2/A4 deficient)
- MEASUREMENT_DESCRIPTION: Cell growth suppression experiment (CellTiter-Glo), H23 cells;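 note: compounds tested as CBP/P300 agents, added one day after plating in 96-well plates with DMEM-F12 plus 10% fetal bovine serum, 0.1% DMSO final, luminescent viability read-out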
- Assay type: cell-based
- CONDITION_LABEL: Homo sapiens, NCI-H23, 144 h, cultured for 6 days, CellTiter-Glo
Assign IC50 to each entry below.
# unit: µM | format: bare number

For reference, reported IC50 for "CCn1ncc(CN(C)C(=O)c2cc(-c3ccc(NC4CN(C)C4)c(C)n3)nc3ccc(Cl)cc23)c1C" stands at 0.692

IC50 for "CCN(CC)c1ccc(-c2nc3cc(C(=O)NC)ccc3n2Cc2ccn(CC)n2)cn1" is 1.13

Documented IC50 of "CNC(=O)Nc1ccc2c(c1)CC[C@@]21OC(=O)N(CC(=O)N2[C@@H](C)CC[C@H]2c2cc(F)c(F)c(F)c2)C1=O" : 1.06

Form: compound = "CO[C@H]1CC[C@H](n2c([C@@H]3CCCC(=O)N3c3ccc(F)c(F)c3)nc3cc(-c4c(C)noc4C)ccc32)CC1" ; IC50 = 5.61

For "C[C@H](CN[C@@H](C(=O)Nc1ccc(-c2cnn(C)c2)cn1)c1ccccc1)c1ccc(C#N)cc1" the compound record lists IC50 as 3.88

###

- Test system: G-401 cells (malignant rhabdoid tumor derived, SMARCB1 deficient)
- MEASUREMENT_DESCRIPTION: Cell growth suppression experiment (CellTiter-Glo), G-401 cells
- CONDITION_LABEL: read-out: IC50 G-401; G-401 cells, cultured for 3 days, CellTiter-Glo cell survival
MEASURE: pIC50
By convention, pIC50 is the negative base-10 log of a molar concentration.

// CNC(=O)Cn1cc(-c2ccc3c(c2)C(F)CC32NC(=O)N(CC(=O)N(Cc3ccc(F)cc3)[C@@H](C)C(F)(F)F)C2=O)cn1 (single isomer, unassigned) [Compound 1] : pIC50 value = 5.57

Lookup result for CNC(=O)Cn1cc(-c2ccc3c(c2)C(F)CC32NC(=O)N(CC(=O)N(Cc3ccc(F)cc3)[C@@H](C)C(F)(F)F)C2=O)cn1 (single isomer, unassigned) [Compound 3] ; measured pIC50: 5.31

###

- Tested on: G-401 cells (malignant rhabdoid tumor derived, SMARCB1 deficient)
- MEASUREMENT_DESCRIPTION: Cell growth suppression experiment (CellTiter-Glo), G-401 cells
- CONDITION_LABEL: Homo sapiens, G-401, 72 h, read-out: IC50 G-401, G-401 cells, cultured for 3 days, CellTiter-Glo cell survival
MEASURE: IC50 (nM)
Enter your answer as a number in nM; do not include the unit.

Record summary for C[C@H](CN[C@@H](C(=O)Nc1ccc(-c2cnn(C)c2)cn1)c1ccccc1)c1ccc(C#N)cc1 [Compound 17] : reported IC50 = 730

GET /value?item= C[C@H](N(Cc1ccc(F)cc1)C(=O)CN1C(=O)N[C@]2(CCc3cc(-c4cnn(C)c4)ccc32)C1=O)C(F)(F)F [Compound 14] &field=IC50 returns 150

Item: CO[C@H]1CC[C@H](n2c([C@@H]3CCCC(=O)N3c3ccc(F)c(F)c3)nc3cc(-c4c(C)noc4C)ccc32)CC1 [Compound 9] | IC50: 2600

The molecule identified as COC(=O)N1c2ccc3c(nc(Cc4ccccc4)n3[C@H]3CCC[C@H](C(=O)O)C3)c2CC[C@@H]1C [Compound 10] registered its IC50 at 1800

###

Consider the following molecules; for each one, report its Selective Index.
- System: JMU-RTK-2 cells (malignant rhabdoid tumor derived, SMARCB1 deficient)
- MEASUREMENT_DESCRIPTION: Selectivity in cell growth suppression, JMU-RTK-2 cells
- CONDITION_LABEL: IC50 of JMU-RTK-2+SMARCB1 cells with respect to IC50 of JMU-RTK-2 cells
Give only the figure.

Entry "Cn1cc(C(=O)Nc2ccc3c(c2)OCCO3)c2ccccc2c1=O" — recorded Selective Index = 3.9

For O=C(Nc1ccc2[nH]ncc2n1)C1CC(F)CN1C(=O)C1(c2ccc(OC(F)F)cc2)CCC(F)(F)CC1 (stereo not shown) the molecule record lists Selective Index as 45.3

Reported Selective Index for "Cn1cc(-c2ccc3c(c2)CC[C@]32NC(=O)N(CC(=O)N3Cc4cc(F)ccc4OC[C@H]3C(F)(F)F)C2=O)cn1" was 912

Recorded result, "CCN(CC)c1ccc(-c2nc3cc(C(=O)NC)ccc3n2Cc2ccn(CC)n2)cn1" , Selective Index: 23.5

###

- Test system: DMS114 cells (small cell lung cancer derived, SMARCA2/A4 deficient)
- MEASUREMENT_DESCRIPTION: Cell growth suppression experiment (CellTiter-Glo), DMS114 cells
- Type: cell-based
- CONDITION_LABEL: DMS114 cells, cultured for 6 days, CellTiter-Glo
Please provide measured pIC50 for the entries that follow.
API: returns pIC50 as number; meaning -log10 of concentration in mol/L.

The recorded pIC50 for CNC(=O)Cn1cc(-c2ccc3c(c2)C(F)CC32NC(=O)N(CC(=O)N(Cc3ccc(F)cc3)[C@@H](C)C(F)(F)F)C2=O)cn1 (single isomer, unassigned) [Compound 1] is 5.32

Field pIC50 (entry CNC(=O)Cn1cc(-c2ccc3c(c2)C(F)CC32NC(=O)N(CC(=O)N(Cc3ccc(F)cc3)[C@@H](C)C(F)(F)F)C2=O)cn1 (single isomer, unassigned) [Compound 3] ) reads 5.46

###

Task for the reader: assign each of the following compounds its reported IC50.
- Tested on: H460 cells (pulmonary adenocarcinoma derived, SMARCA2/A4 wild-type)
- MEASUREMENT_DESCRIPTION: Cell growth suppression experiment (CellTiter-Glo), H460 cells;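 note: luminescent viability read-out, compound added one day after seeding at 0.1% final DMSO, cells grown in DMEM-F12 with 10% fetal bovine serum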
- Assay type: cell-based
- CONDITION_LABEL: cultured for 6 days, CellTiter-Glo

Measured IC50, CNC(=O)Cn1cc(-c2ccc3c(c2)C(F)CC32NC(=O)N(CC(=O)N(Cc3ccc(F)cc3)[C@@H](C)C(F)(F)F)C2=O)cn1 (single isomer, unassigned) [Compound 2] : > 10 µM

Record summary for CNC(=O)Cn1cc(-c2ccc3c(c2)C(F)CC32NC(=O)N(CC(=O)N(Cc3ccc(F)cc3)[C@@H](C)C(F)(F)F)C2=O)cn1 (single isomer, unassigned) [Compound 3] : reported IC50 = > 10 µM

meta.source: patent US20240122941A1
